Parameter Relative Proliferation Fold Change NKL 1:2: see the listing below.
Molecular target: T1, orthogonal hCD122 receptor (hoRb), hCD122 with H133D and Y134F (human, UniProt P14784 27-550); note: reference of the scale not given here
T1 sequence: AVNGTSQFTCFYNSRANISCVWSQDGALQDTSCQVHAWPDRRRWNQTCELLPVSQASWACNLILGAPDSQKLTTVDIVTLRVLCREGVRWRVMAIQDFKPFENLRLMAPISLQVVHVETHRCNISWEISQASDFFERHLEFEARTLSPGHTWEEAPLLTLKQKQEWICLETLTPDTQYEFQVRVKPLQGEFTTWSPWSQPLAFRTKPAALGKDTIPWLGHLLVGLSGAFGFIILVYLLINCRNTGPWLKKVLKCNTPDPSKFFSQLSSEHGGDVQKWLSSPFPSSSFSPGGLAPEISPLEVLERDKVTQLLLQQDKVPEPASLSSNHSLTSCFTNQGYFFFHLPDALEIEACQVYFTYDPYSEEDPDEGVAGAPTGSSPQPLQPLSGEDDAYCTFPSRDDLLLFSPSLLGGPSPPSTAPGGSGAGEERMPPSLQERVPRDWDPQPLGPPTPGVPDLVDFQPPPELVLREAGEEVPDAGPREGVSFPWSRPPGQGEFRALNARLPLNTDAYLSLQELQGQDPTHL
Assay: cell-based or functional assay
All answers are understood in fold, so give the number only.

Solved cases (4 shown):
binder="SQVLGA (ligand) APTSSSTKKTQLQLSQLLVLLGAILNGINNYKNPKLTRMLTFKFYMPKKATELKHLQCLEEELKPLEEVLNLAQSKNFHLRPRDLISNINVIVLELKGSETTFMCEYADETATIVEFLNRWITFCQSIISTLT" unit_descriptor=fold endpoint_result=1.1
binder="T3G, SQVLKA (ligand) APGSSSTKKTQLQLSQLLVLLKAILNGINNYKNPKLTRMLTFKFYMPKKATELKHLQCLEEELKPLEEVLNLAQSKNFHLRPRDLISNINVIVLELKGSETTFMCEYADETATIVEFLNRWITFCQSIISTLT" unit_descriptor=fold endpoint_result=3.94
binder="I86V, SQVLKA (ligand) APTSSSTKKTQLQLSQLLVLLKAILNGINNYKNPKLTRMLTFKFYMPKKATELKHLQCLEEELKPLEEVLNLAQSKNFHLRPRDLVSNINVIVLELKGSETTFMCEYADETATIVEFLNRWITFCQSIISTLT" unit_descriptor=fold endpoint_result=3.82
binder="L18Q, SQVLKA (ligand) APTSSSTKKTQLQLSQLQVLLKAILNGINNYKNPKLTRMLTFKFYMPKKATELKHLQCLEEELKPLEEVLNLAQSKNFHLRPRDLISNINVIVLELKGSETTFMCEYADETATIVEFLNRWITFCQSIISTLT" unit_descriptor=fold endpoint_result=3.93

Entry SQVLKH (ligand) APTSSSTKKTQLQLSQLLVLLKHILNGINNYKNPKLTRMLTFKFYMPKKATELKHLQCLEEELKPLEEVLNLAQSKNFHLRPRDLISNINVIVLELKGSETTFMCEYADETATIVEFLNRWITFCQSIISTLT needs its Relative Proliferation Fold Change NKL 1:2 filled in; supply it.
4

Entry ΔQ13, SQVLKA (ligand) APTSSSTKKTQLLSQLLVLLKAILNGINNYKNPKLTRMLTFKFYMPKKATELKHLQCLEEELKPLEEVLNLAQSKNFHLRPRDLISNINVIVLELKGSETTFMCEYADETATIVEFLNRWITFCQSIISTLT needs its Relative Proliferation Fold Change NKL 1:2 filled in; supply it.
2.06

Entry L18S, SQVLKA (ligand) APTSSSTKKTQLQLSQLSVLLKAILNGINNYKNPKLTRMLTFKFYMPKKATELKHLQCLEEELKPLEEVLNLAQSKNFHLRPRDLISNINVIVLELKGSETTFMCEYADETATIVEFLNRWITFCQSIISTLT needs its Relative Proliferation Fold Change NKL 1:2 filled in; supply it.
2.4

Taken from patent US20210196796A1.
